Please go through the items and note down their TGI.
Test system: OVCAR-3 ovarian
PROCEDURE_DETAILS: NCI tumour cell line growth inhibition, 48 h

Item under review: Clc1ccc(NCNC2Nc3ccccc3N2)cc1Cl . Reported TGI?
> 100 µM

Item under review: O=C(Nc1ccc(Cl)cc1)c1cc(S(=O)(=O)Nc2nc3ncccc3[nH]2)c(SSc2cc(Cl)c(C(=O)Nc3ccc(Cl)cc3)cc2S(=O)(=O)Nc2nc3ncccc3[nH]2)cc1Cl . Reported TGI?
> 100 µM

Item under review: CSC(=Nc1ccccc1)c1c(C)[nH]n(-c2ccccc2)c1=O . Reported TGI?
> 100 µM

---

Tested on: NCI-H460 lung
PROCEDURE_DETAILS: NCI tumour cell line growth inhibition, 48 h
MEASURED_METRIC: TGI

Which TGI is reported with NCI-H460 lung for this entry: CCN(CC)CC(C(=O)Nc1c(C)cccc1C)/C(C)=N\NC(=S)NN (configuration not stated) ?
> 100 µM

Which TGI is reported with NCI-H460 lung for this entry: O=C(O)c1ccccc1NS(=O)(=O)c1ccc(Cl)cc1 ?
> 100 µM

Which TGI is reported with NCI-H460 lung for this entry: O=C(O)CN(CCN(CC(=O)O)CC(=O)O)CCN(CC(=O)O)CC(=O)O ?
7.09 µM

Which TGI is reported with NCI-H460 lung for this entry: OC1CCN2Cc3ccccc3N=C12 (configuration not stated) ?
> 100 µM

Which TGI is reported with NCI-H460 lung for this entry: [N-]=[N+]=NC1C(Cl)C(=O)NC(=O)N1[C@H]1C[C@H](O)[C@@H](CO)O1 (some centres not stated) ?
> 100 µM

Which TGI is reported with NCI-H460 lung for this entry: CN(C)CC1CCC/C(=C\c2ccc(Cl)c(Cl)c2)C1=O (configuration not stated) ?
28 µM

Which TGI is reported with NCI-H460 lung for this entry: CC1=NC2(C(=O)O)C3(C(=O)O)N=C(C)OC3(C(F)(F)F)C2(C(F)(F)F)O1 (configuration not stated) ?
> 100 µM

Which TGI is reported with NCI-H460 lung for this entry: CCN(CC)C(=O)c1cccc2c(OC)ccc(OC)c12 ?
> 100 µM

Which TGI is reported with NCI-H460 lung for this entry: c1ccc(C/C(=N\Nc2nc3ccccc3[nH]2)c2ccccn2)cc1 ?
11.3 µM

Which TGI is reported with NCI-H460 lung for this entry: Cc1cc2c(cc1Cl)SC(=Nc1ccc(Cl)cc1)N(S(=O)(=O)c1ccc(Br)s1)S2(=O)=O ?
> 100 µM

Which TGI is reported with NCI-H460 lung for this entry: O=C1c2ccccc2C(=O)N1C/C=N/NS(=O)(=O)c1cccc([N+](=O)[O-])c1 ?
> 100 µM

Which TGI is reported with NCI-H460 lung for this entry: NCC(=O)N[C@H]1c2ccsc2/C(=N/O)[C@H]1O ?
> 100 µM

---

Please go through the items and note down their TGI.
System: 786-0 renal
PROCEDURE_DETAILS: NCI tumour cell line growth inhibition, 48 h

Item under review: CN1CCN(c2n[nH]c(=O)c3c2nnn3Cc2ccccc2)CC1 . Reported TGI?
> 100 µM

Item under review: OC1CCN2Cc3ccccc3N=C12 (configuration not stated) . Reported TGI?
> 100 µM

Item under review: CCC(=O)N1C(=S)SC[C@H]1C(=O)OC . Reported TGI?
> 100 µM

Item under review: NC(=O)N/N=C(\Cc1cc(=O)oc2cc(O)ccc12)C(=O)Nc1ccccc1C(N)=O . Reported TGI?
> 100 µM

Item under review: COc1ccc2c(c1)c(-c1ccc(-c3cn(C)c4ccc(OC)cc34)s1)cn2C . Reported TGI?
> 100 µM

Item under review: CC(C)(C)c1ccc(O)c(C(O)c2ccccn2)c1 (configuration not stated) . Reported TGI?
> 100 µM

Item under review: O=[N+]([O-])C1=Cc2c(O)ccc(O)c2C2OC=CC12 (configuration not stated) . Reported TGI?
32.6 µM

Item under review: O=c1oc2ccccc2cc1P(=O)(O)O . Reported TGI?
> 100 µM

Item under review: COc1cc(OC)c(OC)cc1/C=C/c1ccccn1 . Reported TGI?
> 10 µM

Item under review: Cc1cccc(C)c1NC(=S)N/C=C(\C#N)C(N)=O . Reported TGI?
> 100 µM

Item under review: Cc1cccc(-c2cc(=O)c3cccnc3[nH]2)c1 . Reported TGI?
> 100 µM

Item under review: CCN(CC)C(=O)c1cccc2c(OC)ccc(OC)c12 . Reported TGI?
> 100 µM
